I'd be grateful if you could share measured IC50 for these entries.
tested on: P. falciparum 3D7 growth, pLDH absorbance; experiment: blood-stage malaria parasite growth potency – strain 3D7, dose response (AID 2305)

-- ask // fetch IC50 given entry `CCN(CC)CCCNc1c2ccccc2nc2ccccc12`
-- reply 750 nM

-- ask // fetch IC50 given entry O=C(Nc1ccc(C(F)(F)F)cc1)NC1CCN(c2ccnc3ccccc23)C1 (stereo not drawn)
-- reply 90 nM

-- ask // fetch IC50 given entry `Cc1ccc(CON2C(N)=NC(N)=NC23CCCCC3)c2ccccc12`
-- reply 70 nM

-- ask // fetch IC50 given entry `COc1ccc(-c2cccc(NC(=O)c3cccc(Cl)c3)c2)cc1CN1CCCC1`
-- reply 730 nM

-- ask // fetch IC50 given entry `CCOC(=O)c1cnc2c(C(F)(F)F)cccc2c1Nc1ccc(O)cc1`
-- reply 630 nM

-- ask // fetch IC50 given entry `c1ccc(CNCCn2c(-c3ccc4c(c3)CCO4)nc3c(N4CCCC4)cccc32)cc1`
-- reply 1130 nM

-- ask // fetch IC50 given entry `CC(C)C[C@H](NC(=O)c1cc2ccccc2s1)C(=O)N[C@H]1CCN(Cc2ccc(OC[C@@H]3CCCN3C)c3ccccc23)C1`
-- reply 1160 nM

-- ask // fetch IC50 given entry `O=c1cc(NCCCNCc2cccc(Oc3ccccc3)c2)[nH]c2ccccc12`
-- reply 950 nM

-- ask // fetch IC50 given entry `CC(C)(C)C(=O)Nc1c(-c2cc(=O)oc3cc4c(cc23)CCC4)oc2ccccc12`
-- reply 1260 nM

-- ask // fetch IC50 given entry `c1ccc(-c2nnc(-c3ccccn3)nc2NC2CCCCC2)cc1`
-- reply 910 nM

-- ask // fetch IC50 given entry CC(O)C1CCCCN1C(=O)c1cccc(-c2cccc(-c3nc4ccccc4[nH]3)c2)c1 (stereo not drawn)
-- reply 530 nM

-- ask // fetch IC50 given entry `COc1cccc2cc(C(=O)N[C@@H](CC(C)C)C(=O)N[C@H](/C=N/N3CCCC3=O)Cc3ccccc3)oc12`
-- reply 560 nM

-- ask // fetch IC50 given entry `NC(=O)c1ccccc1OCC(=O)Nc1cccc(-c2ccc(-c3nc4ccc(C(F)(F)F)cc4[nH]3)cc2)c1`
-- reply 650 nM

-- ask // fetch IC50 given entry `CCCC1(NC[C@@H](O)[C@H](Cc2ccccc2)NC(=O)c2cc(NCC)cc(N3CCCCS3(=O)=O)c2)CC1`
-- reply 1080 nM

-- ask // fetch IC50 given entry `O=C(NC1CCN(Cc2ccc(F)cc2)CC1)c1ccc(-c2cccc(C(F)(F)F)c2)s1`
-- reply 1360 nM

-- ask // fetch IC50 given entry `CNC(=O)COC(=O)c1c2c(nc3ccccc13)C(=Cc1ccc3c(c1)OCO3)CCC2`
-- reply 640 nM

-- ask // fetch IC50 given entry `O=S(=O)(NCCN1CCCC1)c1ccc(-c2cccc(CNC3Cc4ccccc4C3)c2)s1`
-- reply 750 nM

-- ask // fetch IC50 given entry `CS(=O)(=O)NCCCNCc1cccc(-c2csc(-c3nc4ccccc4[nH]3)c2)c1`
-- reply 1010 nM

-- ask // fetch IC50 given entry `CN1CCN(CCCCCNc2c3ccccc3nc3ccccc23)CC1`
-- reply 740 nM

-- ask // fetch IC50 given entry `CC(C)CCNC(=O)c1cnc2c(O)cccc2c1Nc1cccc(NC(=O)c2ccc(F)cc2)c1`
-- reply 910 nM

-- ask // fetch IC50 given entry `Cc1cc2nc(-c3cc(Br)ccc3O)c(-c3cc(Br)ccc3O)nc2cc1C`
-- reply 850 nM

-- ask // fetch IC50 given entry `CNc1ccc(CNCc2ccc(-c3ccc(-c4nc5ccc(F)cc5[nH]4)cc3)cc2)cc1`
-- reply 210 nM

-- ask // fetch IC50 given entry `Cc1cc(-c2cccc(CNCc3ccc(F)cc3)c2)ccc1S(=O)(=O)NCCN1CCCC1`
-- reply 730 nM

-- ask // fetch IC50 given entry `Clc1ccc2c(Cl)c(CNCCCNc3nc4ccccc4[nH]3)[nH]c2c1`
-- reply 220 nM

-- ask // fetch IC50 given entry `Cc1noc(C)c1-c1cccc(CNCc2ccc(-c3ccc(-c4nc5ccc(C(F)(F)F)cc5[nH]4)cc3)cc2)c1`
-- reply 170 nM

-- ask // fetch IC50 given entry `Cc1ccc(Nc2nc(-c3ccccn3)cs2)nc1`
-- reply 750 nM

-- ask // fetch IC50 given entry `CC(=O)c1ccc2nc[nH]c(=O)c2c1`
-- reply 720 nM

-- ask // fetch IC50 given entry `O=C(Nc1ccnc(N2C[C@H]3C[C@@H]2CN3Cc2cccc(O)c2)c1)c1ccc(F)cc1`
-- reply 1240 nM

-- ask // fetch IC50 given entry `NC(=O)c1sc(-n2cnc3ccc(OCC4CCNCC4)cc32)cc1OCc1ccccc1C(F)(F)F`
-- reply 750 nM

-- ask // fetch IC50 given entry `CN(c1cc(NC(=O)c2ccc(F)cc2)ccn1)C1CCN(Cc2cccc(F)c2)CC1`
-- reply 490 nM

-- ask // fetch IC50 given entry `COc1cc(CNC[C@@H](O)[C@H](Cc2ccccc2)NC(=O)c2cc(OC(C)C)cc(N3CCCS3(=O)=O)c2)cc(OC)c1`
-- reply 800 nM

-- ask // fetch IC50 given entry `Cc1sc(NC(=O)Cc2cccc(C(F)(F)F)c2)nc1-c1cccc(Cl)c1`
-- reply 470 nM

-- ask // fetch IC50 given entry `CC(C)Nc1nc(NCCc2cnc[nH]2)nc(NCc2cccc3ccccc23)n1`
-- reply 1010 nM
